tested on: UACC-62 melanoma; experiment: NCI tumour cell line growth inhibition, 48 h
measured-endpoint: TGI (µM)
Note: unit µM is implicit; provide only the numeric part.

TGI reading for COc1cc([C@@H]2c3cc4c(cc3[C@@H](NC(=O)c3ccc(OC(C)=O)cc3)C3COC(=O)[C@@H]32)OCO4)cc(OC)c1O (stereo not given in full) : 3.14

TGI reading for Cc1ccnc(NC(c2ccccc2)c2ccc3cccnc3c2O)c1 (stereo not given) : 87.9

TGI reading for CCC1OC2C(CC=C(C)C)=C3OC(C)(O)C(C)(CC)C(=O)C3=C3OC(=O)C=C1C32 (stereo not given) : 83.4

TGI reading for `O=C1c2c(F)c(F)c(F)c(F)c2SC2=Nc3cccc4cccc(c34)N12` : 11

* * *

system: NCI-H23 lung; experiment: NCI tumour cell line growth inhibition, 48 h
GI50 for assorted compounds

For orientation, consider the following solved cases.
Cc1nc2cc(Nc3nc(Nc4ccc(F)cc4)nc(N4CCCC4)n3)ccc2n1Cc1ccccc1; 2.2 µM
COc1ccc2c(c1)C(=O)c1c-2c(OCCN2CCCCC2)nc2ccc(OC)cc12; 1.12 µM

GI50 reading for `COc1cc(-c2ccc(=O)oc2C#Cc2ccccc2)cc(OC)c1OC` : 36.9 µM

GI50 reading for `COc1cc(OC)c(/C=C/C(=O)c2c(O)cc(OC)c(C3CCN(C)CC3)c2OC)c(OC)c1` : 1.41 µM

GI50 reading for `Oc1[nH]c2ccccc2c1/C=c1/ccc2c(c1)N=C(c1cc(F)cc(F)c1)N=2` : 4.13 µM

* * *

test system: NCI-H460 lung; experiment: NCI tumour cell line growth inhibition, 48 h
measured-endpoint: TGI

For orientation, consider the following solved cases.
COc1cc(O)c2c(=O)c(OC)c(-c3ccc(OC)c(OC)c3)oc2c1.[Sn]; > 100 µM
C=C(C)C1CCC2(C(=O)O)CCC3(C)C(CCC4C5(C)CCC(O)C(C)(C)C5CCC43C)C12 (stereo unspecified); 39 µM
Cc1cc(=O)[nH]c(NNC(C#N)c2ccc(N(C)C)cc2)n1 (stereo unspecified); > 100 µM
C/C(CC(=O)Nc1cccc(C)c1C)=N\NC(N)=S; > 100 µM

TGI reading for `O=C1c2ccccc2-c2ccccc2C1(Cl)Cl` : 3.97 µM

TGI reading for `Cc1cc2c(C)nn(Cc3ccccc3Cl)c2c(C#N)c1C` : > 100 µM

TGI reading for `CCOC(=O)[C@H](CO)Nc1c(O)c2c(c(O)c1Cl)C(=O)C=CC2=O` : > 10 µM

TGI reading for `Cc1cc(Cl)ccc1Nc1nc2c(s1)C(=O)c1ccccc1C2=O` : 9.5 µM

TGI reading for C=CC(=C)CCC(Br)C(C)(C)Cl (stereo unspecified) : > 100 µM

TGI reading for `N/C(=N\C(N)=N\c1nc2ccccc2s1)c1ccnc(Br)c1` : > 100 µM

TGI reading for `O=C1[C@H](O)[C@@H]2CCC[C@@]23CCCN13` : > 100 µM

* * *

test system: TK-10 renal; assay: NCI tumour cell line growth inhibition, 48 h
measured-endpoint: TGI (µM)
Note: unit µM is implicit; provide only the numeric part.

For orientation, consider the following solved cases.
Cn1c2c(c3ccccc31)CCN(CCCN1CCN(c3ccccc3)CC1)C2=O; 35.4
O=C1C(Cl)C(c2ccc([N+](=O)[O-])cc2)N1n1cnc2ccccc2c1=O (stereo not given); 83.2
COc1cc(C2c3cc4c(cc3OC(NNc3ccccc3)C2C)OCO4)cc(OC)c1O (stereo not given); 23.6

TGI reading for `CNC(=O)c1cc(Oc2ccc3nc(NC(=O)Nc4cc(C(F)(F)F)cc(C(F)(F)F)c4)sc3c2)ccn1` : 3.35

TGI reading for O=C(CC(=O)N1N=C(c2ccccc2)C(N=Nc2ccccc2Cl)C1=O)Nc1ccccc1Cl (stereo not given) : 40.6

TGI reading for `COC1=CC(c2ccc[nH]2)=N/C1=C\c1[nH]c(C)c(C)c1CCC(=O)OCc1ccccc1` : 3.09

TGI reading for `O=C(c1ccccc1)c1c2n(c3c1cc(O)c1ccccc13)CCN2` : 75.2

TGI reading for Cc1ccc(S(=O)(=O)OC2CSSCC2OS(=O)(=O)c2ccc(C)cc2)cc1 (stereo not given) : 28.9

* * *

system: 786-0 renal; test: NCI tumour cell line growth inhibition, 48 h
GI50 for assorted molecules

O=C1c2ccccc2-c2ccccc2C1(Cl)Cl; 2110 nM
Cn1c(=O)c(-c2c(Cl)cccc2Cl)cc2cnc(Nc3ccc(I)cc3)nc21; 1950 nM
[Au+].c1c[n-]cn1.c1ccc([PH+](c2ccccc2)c2ccccc2)cc1; 1660 nM
Oc1[nH]c2ccccc2c1/C=c1/ccc2c(c1)N=C(c1cc(F)cc(F)c1)N=2; 10000 nM
CS(=O)(=O)c1ccc(-c2cnc(NCc3ccco3)n3cnnc23)cc1; > 100000 nM
ClCc1ccc(-c2ccc(Cn3cnc4c(Cl)ncnc43)cc2)cc1; 1620 nM

GI50 value, target or system 786-0 renal, for `Cc1nc2cc(Nc3nc(Nc4ccc(F)cc4)nc(N4CCCC4)n3)ccc2n1Cc1ccccc1` : 1850 nM

GI50 value, target or system 786-0 renal, for `CC/C(=C(/CC)c1ccc(O)cc1)c1ccc(O)cc1` : 5590 nM

GI50 value, target or system 786-0 renal, for CCN(CC)CC(O)c1cc(-c2ccc(Cl)cc2)nc2cc(Cl)ccc12 (stereo unspecified) : 1900 nM

GI50 value, target or system 786-0 renal, for `COc1cccc(/C=C2\CCc3ccccc3C2=O)c1` : 18200 nM

GI50 value, target or system 786-0 renal, for `C1C[S][Ge]2([S]CCS1)[S]CCSCC[S]2` : > 100000 nM

* * *

system: SN12C renal; assay: NCI tumour cell line growth inhibition, 48 h
measured-endpoint: TGI

For orientation, consider the following solved cases.
Cc1cc2nc3c4cc([N+](=O)[O-])ccc4n(CCN(C)C)c3nc2cc1C; > 54.8 µM
COC1/C=C/OC2(C)Oc3c(C)c(O)c4c(O)c(c(C=NOC(c5ccccc5)c5ccccc5)c(O)c4c3C2=O)NC(=O)/C(C)=C/C=C/C(C)C(O)C(C)C(O)C(C)C(OC(C)=O)C1C (centres undefined); 3.53 µM
c1ccc(Sc2nc(Sc3ccccc3)nc(Sc3ccccc3)n2)cc1; > 100 µM
CC(C)(/C=N/O)/[N+]([O-])=C/c1ccccc1; > 100 µM
CN(C)C=Nc1c2c(nc3ccccc13)CCCC2; > 100 µM
COc1cc(CC2C(=O)OCC2[C@@H](OC(C)=O)c2ccc3c(c2)OCO3)c(Br)c(OC)c1OC (some centres undefined); > 100 µM

TGI reading for `Cn1c2c(c3ccccc31)CCN(CCCN1CCN(c3ccccc3)CC1)C2=O` : 46.7 µM

TGI reading for `COc1ccc(Nc2ncccc2C(=O)NCc2cn(Cc3cccc(Oc4ccccc4)c3)nn2)c(OC)c1` : > 100 µM

TGI reading for `COc1cc2c(cc1OC)-c1[nH]c3ccc([N+](=O)[O-])cc3c1CC(=O)N2` : > 55.1 µM

* * *

system: UACC-257 melanoma; experiment: NCI tumour cell line growth inhibition, 48 h
GI50 for assorted compounds

For orientation, consider the following solved cases.
Cc1nc2cc(Nc3nc(Nc4ccc(F)cc4)nc(N4CCCC4)n3)ccc2n1Cc1ccccc1; 2.32 µM
Oc1[nH]c2ccccc2c1/C=c1/ccc2c(c1)N=C(c1cc(F)cc(F)c1)N=2; 10.6 µM
O=C(Nc1nc(-c2ccccc2Cl)cs1)c1cc(-c2ccc(Cl)cc2)nc2ccc(Cl)cc12; 14.9 µM
COc1cccc(/C=C2\CCc3ccccc3C2=O)c1; 13.4 µM
COc1ccc(Nc2ncccc2C(=O)NCc2cn(Cc3cccc(Oc4ccccc4)c3)nn2)c(OC)c1; 13.4 µM

Could you now look at the following compound, please?
GI50 value, target or system UACC-257 melanoma, for `Cn1cc(-c2ccc3nnc(C(F)(F)c4ccc5ncccc5c4)n3n2)cn1` : > 100 µM

* * *

tested on: SNB-19 CNS; assay: NCI tumour cell line growth inhibition, 48 h
measured-endpoint: GI50

For orientation, consider the following solved cases.
C=CCCCC(O)c1ccc(C(O)c2cnc3ccccc3c2)o1 (centres undefined); 82.5 µM
O=C1Nc2c(ccc(Cl)c2Cl)/C1=C\c1cc(C(F)(F)F)cc(C(F)(F)F)c1; 5.7 µM
Cc1nc2cc(Nc3nc(Nc4ccc(F)cc4)nc(N4CCCC4)n3)ccc2n1Cc1ccccc1; 3.4 µM
COc1ccc(Nc2ncccc2C(=O)NCc2cn(Cc3cccc(Oc4ccccc4)c3)nn2)c(OC)c1; 3.64 µM
O=C(c1ccccc1)c1c2n(c3c1cc(O)c1ccccc13)CCN2; 1.85 µM

Could you now look at the following compound, please?
GI50 reading for `COc1cc(-c2ccc(=O)oc2C#Cc2ccccc2)cc(OC)c1OC` : 29.9 µM
